Test system: L6-myotubes
Experiment: Glucose uptake in differentiated L6-myotubes (3H-2-deoxy-glucose)
Assay type: cell-based
Conditions: L6-myotubes; agonist final concentration 1×10^−5; relative to isoproterenol; Table 1
Structures can show the parent of a compound that is named as a salt.
Experimental Endpoint: Biological example 1 (glucose uptake, activity compared to that of isoproterenol)

- Compound: "CCC[C@H]1CCC[C@H]([C@H](O)c2cncc(F)c2)N1 [Example 1, dihydrochloride]"
  Experimental Value: "− (less than 25%)"
- Compound: "CC1(C)CC[C@H]([C@@H](O)c2cncc(F)c2)N1 [Example 6]"
  Experimental Value: "− (less than 25%)"
- Compound: "CCC[C@@H]1CC[C@H]([C@@H](O)c2cncc(F)c2)N1.O=C(O)/C=C\\C(=O)O [Example 4]"
  Experimental Value: "++ (between 75 and 50%)"
- Compound: "CC1(C)CC[C@H]([C@H](O)c2cncc(O)c2)N1 [Example 7]"
  Experimental Value: "++ (between 75 and 50%)"
- Compound: "CCC[C@H]1CCC[C@H]([C@@H](O)c2cncc(F)c2)N1 [Example 2]"
  Experimental Value: "− (less than 25%)"

---

Tested on: Intracellular cAMP levels
Assay: Measurement of intracellular cAMP levels in differentiated L6 cells (alpha screen cAMP kit)
Type: cell-based
Conditions: Table 2; the assay of Biological Example 2 (intracellular cAMP, agonist 1×10-^5, relative to isoproterenol)
Structures can show the parent of a compound that is named as a salt.

- Molecule: "CCC[C@@H]1CCCC[C@H]([C@H](O)c2cncc(F)c2)N1 [Example 13]"
  Biological example 4: "− (less than 25%)"
- Molecule: "CC1(C)C[C@@H]([C@H](O)c2cncc(F)c2)N1 [Example 10, dihydrochloride]"
  Biological example 4: "− (less than 25%)"
- Molecule: "CC1(C)C[C@H]([C@H](O)c2cncc(F)c2)N1 [Example 9, dihydrochloride]"
  Biological example 4: "− (less than 25%)"
- Molecule: "CC1(C)C[C@@H]([C@@H](O)c2cncc(F)c2)N1 [Example 11, dihydrochloride]"
  Biological example 4: "− (less than 25%)"
- Molecule: "CCC[C@@H]1CCCC[C@H]([C@@H](O)c2cncc(F)c2)N1 [Example 14]"
  Biological example 4: "− (less than 25%)"
- Molecule: "CC1(C)C[C@H]([C@@H](O)c2cncc(F)c2)N1 [Example 12, dihydrochloride]"
  Biological example 4: "− (less than 25%)"

Values compiled from patent US12378216B2.
